system: MS2 coat protein; assay: apparent KD of MS2 coat protein, switch OFF state (with FMN for OFF switches, without FMN for ON switches); designed switch direction (-1 OFF switch, 1 ON switch): -1; higher = weaker reporter binding; settings: FMN input: 0 or 200 uM; Eterna round: R93 (includes R88 designs)
Rule: apparent KD of MS2 coat protein of 20 nM or more gives fulfilled; anything lower gives not fulfilled.

Problem: # check: apparent KD of MS2 coat protein of ACCAGUACAGGAUAUACAUGAGGAUCACCCAUGUGAGAAUUAAGUGGCGUACCACAAAGUAGAAGGGUACUGGA [Mat - Exclusion 3 - JL mod - D11] is greater than or equal to 20 nM
Result: fulfilled

Problem: In plain terms: is recorded apparent KD of MS2 coat protein at least 20 nM for AGCUAGUCAGGAUAUACGAACAUGUCAAAAGACGUGAAGGAACAUGAGGAUCACCCAUGUAGAAGGGACUAGCA [Diamond 19] ?
Result: not fulfilled

Problem: Hi team, for AUAAAACAUGAGGAUCACCCAUGUGAGGAUAUAGGAAACAAACAAACAAACAAACAAACUAGAAGGCACAAUAA [Amethyst 10] , is the recorded apparent KD of MS2 coat protein at or above 20 nM?
Result: not fulfilled

Problem: // inclusive: apparent KD of MS2 coat protein at least 20 nM? input: AAAACUCGAGGAUAUGCAAAAUGAUUGCGAAAGCAAUCAAAACAUGAGGAUCACCCAUGUAGAAGGCGAGAAAA [Mat - Mod of Eli]
Result: not fulfilled

Problem: Determine whether measured apparent KD of MS2 coat protein meets or exceeds 20 nM for AAAAAAGGAGGAUAUACGAACAUGUCAAAAGACGUGAAGGGACAUGAGGAUCACCCAUGUAGAAGGUCUAAAAA [JL Part Open 35]
Result: fulfilled

###

test system: K4 kissing-loop RNA reporter; assay: apparent KD of K4 kissing-loop reporter; higher = weaker reporter binding; conditions: Eterna round: R107; input ligand: tryptophan 2.4 mM
parameter: apparent KD of K4 kissing-loop reporter (nM)
State just the number; it will be interpreted in nM.

Example cases with answers are listed next.
[[record]]
sequencecontent = "CCAUUCUUUUACGAUACCAGUUUAAUAUAUUUAUUCAUAACCCUUGCCGAGUGAUGUUCGGACCCUUGGCAGCGUUUGCGAGAGG [lliltkmullin]"
parameter = "apparent KD of K4 kissing-loop reporter"
measurement = 239

[[record]]
sequencecontent = "AGCGAUGUUUUCUCUAGGAGUGAUGUUUUUCGAGGACCGGUACGGCCGCCACUCGGACGACGAGUGUGGUAGUGGGCUGUUGACU [ffmullin]"
parameter = "apparent KD of K4 kissing-loop reporter"
measurement = 493


Now for a further sequence.
The reported K4 kissing-loop RNA reporter apparent KD of K4 kissing-loop reporter of GGGCCUCUGGCUGAUACCAGUGAUGCAGGGUCCGAGACAGGGAGUGAUGUUCCCUGCAGCCACCCUUGGCAGCAGUUUAAGUUUG [Exclusion Theophylline B GF 19] is 129

###

test system: K4 kissing-loop RNA reporter; assay: apparent KD of K4 kissing-loop reporter; higher = weaker reporter binding; conditions: Eterna round: R107; input ligand: arginine 13.2 mM;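 further: bound reporter read as fluorescence of individual clusters on recovered sequencing chips by microscopy, with normalized cluster intensities fitted with a binding model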
parameter: apparent KD of K4 kissing-loop reporter (µM)
Could you give me the number in µM? Just the number is fine.

[[record]]
sequencecontent = "GGUUUAUAGGAGGAUACCAGUACGGAUAAAGUACGUUAAUAGUAGAGUGAUGUUCUAAAGUACCCUUGGCAGCUUAGAGUAAGUU [ExTheophylB.K]"
measurement = 0.147

[[record]]
sequencecontent = "GCCUAGCAGGGAAGGAGCGCCAUAUAAUUAAAAGUUAAUUAAUGAGUGAUGUUCAAAUAAUGGCAGGUAGGUCGCCCUGCUAGGC [KL-SSArg B9]"
measurement = 0.289


Per the record, ACACUUUACGUAGGAUAUGCGACGAGUGAUGUUCGUCAGGCGGCCUUAGAUUAAACAAGCCGCCUAGCAGAAGGACGGGCAGUGU [Qumatiri] has apparent KD of K4 kissing-loop reporter of 0.155

###

test system: MS2 coat protein; assay: apparent KD of MS2 coat protein; designed switch direction (-1 OFF switch, 1 ON switch): -1; higher = weaker reporter binding; conditions: Eterna round: R95; input ligand: microRNA oligo, concentration not stated
sequences and their reported apparent KD of MS2 coat protein
Dear colleague, please return just the value in nM, with no unit written.

[[record]]
sequencecontent = "AAUAAUUUUUUUUUUUUACAAGCUUUUUGCUCGUCUUAUACAUGAGGAUCACCCAUGUGGGUGAAAGAUAGAUUGUC [JMF's solution 1] (puzzle: Sensor v3, turn-off variant 2)"
endpointunit = "nM"
measurement = 18.2

[[record]]
sequencecontent = "CCUAUGUGAGGAUAUCACUGGUCUUCUUUUAUUUUUUACAGUGAGAAGGCACAUGAGGAUCACCCAUGUCGGUG [Ex4 - 3 - 49] (puzzle: Exclusion 4)"
endpointunit = "nM"
measurement = 151

[[record]]
sequencecontent = "AGAUGUAGAUACCGAUCCUACAUGAGGAUCACCCAUGUAGCUAGACGUGCGCGCGUCGCUCGUCAGACUACCAGUAG [salish99_TOv1_r3_092] (puzzle: Sensor v3, turn-off variant 1)"
endpointunit = "nM"
measurement = 296

[[record]]
sequencecontent = "CCAGCGAGUGUGAGGAUAUGCUGGUCCUUGGAUCAGCAGAAGGCACAUGAGGAUCACCCAUGUGAGGACGUUGG [JL bmx4 3.31] (puzzle: Brourd's mod of Exclusion 4)"
endpointunit = "nM"
measurement = 23.9


Consider now this further sequence.
get_value(item= GAUGCUUCGGCAUCUACAAGCUUUUUGCUCGUCUUAUUAACAUGAGGAUCACCCAUGUUAAUGAGACCUCAUGUAUU [Sensor v3 - turn-off variant 2 - 7] (puzzle: Sensor v3, turn-off variant 2) , readout=apparent KD of MS2 coat protein) returns 14.9

###

Each entry below lists one item and its recorded apparent KD of MS2 coat protein value.
system: MS2 coat protein; assay: apparent KD of MS2 coat protein; designed switch direction (-1 OFF switch, 1 ON switch): -1; higher = weaker reporter binding; conditions: input ligand: microRNA oligo, concentration not stated
I only need the number, in µM, no unit after it.

[[record]]
sequencecontent = "ACGGGUAAGUAAGGAUAUCCAACAGGCUGAAUUCAACCUGAACAUGAGGAUCACCCAUGUGGGUGGGAGAAGGUACUCUCCCGC [Diladiaen] (Eterna round: R96, puzzle: Exclusion NG 2)"
measurement = 0.0655

[[record]]
sequencecontent = "GUGGGUUACAUGAGGAUCACCCAUGUAUAGUGGGAAGAGAGAUAGGAUAUGAUGUGAGAAUUAUAUUAGAAGGAUCGAGACUAG [AK ExNG3-2.6] (Eterna round: R96, puzzle: Exclusion NG 3)"
measurement = 0.236

[[record]]
sequencecontent = "GACCUAUAGGUAGGAUAUCAUUGCGAUUAGCUAUGAGAAGGACCACAUGAGGAUCACCCAUGUCCUCUAAUUAGCCAUUUGGUC [Fiskers ExNg1 - 8] (Eterna round: R96, puzzle: Exclusion NG 1)"
measurement = 0.338


Lab note: next sequence to report on.
Tested system MS2 coat protein; apparent KD of MS2 coat protein recorded for GUCGUGCAGCUUUGCUGUACGAGUACAUGAGGAUCACCCAUGUAGGAUAUGGUACGCUUUGCGUGCCAGAAGGACGUGCGUUGG [salish99_ExNG3_r04_004] (Eterna round: R96, puzzle: Exclusion NG 3) was 0.0383

###

test system: MS2 coat protein; assay: apparent KD of MS2 coat protein; designed switch direction (-1 OFF switch, 1 ON switch): -1; higher = weaker reporter binding; details: input ligand: none
Label rule, in plain words: apparent KD of MS2 coat protein of 30 nM and up is fulfilled, under 30 nM is not fulfilled.

Worked examples, 6 sequences total:
[[record]]
sequencecontent = "UUUUUCUCAGGAUAUACAUGAGGAUCACCCAUGUAUAUUAAAAAUAAUACAUGGGAAUGUAGAAGGGAGCUCAU [Omei Ex3 Pseudoloop 9] (Eterna round: R97, puzzle: Exclusion 3)"
classassignment = "fulfilled"

[[record]]
sequencecontent = "GUACCCAAAGGAUAUACUUGAGGAUCACCCAAGUAUGUCGCUUGGGCACGGUAAAGGAGUAGAAGGUUGGGAAG [Aedti] (Eterna round: R97, puzzle: Exclusion 3)"
classassignment = "not fulfilled"

[[record]]
sequencecontent = "CAGCGUUCAGGAUAUACAUGAGGAUCACCCAUGUGUUCCAGCUAGGAAACUAGCAAAUGUAGAAGGGAACGCUG [Mat - Exclusion 3 - JL Mod - D1] (Eterna round: R97, puzzle: Exclusion 3)"
classassignment = "fulfilled"

[[record]]
sequencecontent = "AUCAGCUCGUGAGGAUAUACAUGAGGAUCACCCAUGUGAUCAAUAGCAGCUUCGGCUGCAUUAAUGUAGAAGGUACGAGCUGAU [ENG2/5-C3] (Eterna round: R96, puzzle: Exclusion NG 2)"
classassignment = "fulfilled"

[[record]]
sequencecontent = "ACAAGCUUAAUCAGUAAGAACAUGAGGAUCACCCAUGUAAAUGAAAGGACUAUUGGGUUAUUUAAAGCUCGUCUUAU [JR_STOV1_Sub014] (Eterna round: R97, puzzle: Sensor, turn-off variant 1)"
classassignment = "fulfilled"

[[record]]
sequencecontent = "UGUACUAUGCGAGCUGACUUGCGUAGUGCAGCAGGUGAAACAUGAGGAUCACCCAUGUCCUCAUUUGCUCGUCUUAU [SL-sv3-2.02 JL mod] (Eterna round: R96, puzzle: Sensor v3, turn-off variant 2)"
classassignment = "fulfilled"


Problem: Quick check: does ACAUGAGGAUCACCCAUGUGGACGUAAUGGCUCAUGUAGAGUGAGGAUAUGUGAGACGAACGAGAACAGAAGGCACAAGACAGG [Deportation 7 - Jieux - Exclusion NG 3] (Eterna round: R96, puzzle: Exclusion NG 3) have apparent KD of MS2 coat protein greater than or equal to 30 nM?
Result: not fulfilled

Problem: # check: apparent KD of MS2 coat protein of UACAUGAGGAUCACCCAUGUUUUGUCGUGUAUGGUAUUUAUCUAGGAUAUCAAUGUAUGUAUUUAUGAGAAGGAGAAUAUUAAU [JMF's solution 43] (Eterna round: R96, puzzle: Exclusion NG 3) is greater than or equal to 30 nM
Result: fulfilled

Problem: # bool: apparent KD of MS2 coat protein of UGAUUGUUUACCAGAUUAUACAUGAGGAUCACCCAUGUAGAUCCUACGUGCACGUUAUACCGCUCGUCUUAUUCCCA [Sensor-V1 #75] (Eterna round: R97, puzzle: Sensor, turn-off variant 1) >= 30 nM
Result: fulfilled

Problem: Does the reported apparent KD of MS2 coat protein for CACAUUACAAAGGAUAUCUGACCAUGCCCUGGCAGAGAAGGUUGGACAUGAGGAUCACCCAUGUGUAUCCAAGU [Eternabot (Original) Solution 6] (Eterna round: R97, puzzle: Exclusion 6) fall at or above the 30 nM mark?
Result: not fulfilled
